Molecular target: fixed activated platelets (Homo sapiens, UniProt P05106+P08514)
Sequence (P08514 32-1039): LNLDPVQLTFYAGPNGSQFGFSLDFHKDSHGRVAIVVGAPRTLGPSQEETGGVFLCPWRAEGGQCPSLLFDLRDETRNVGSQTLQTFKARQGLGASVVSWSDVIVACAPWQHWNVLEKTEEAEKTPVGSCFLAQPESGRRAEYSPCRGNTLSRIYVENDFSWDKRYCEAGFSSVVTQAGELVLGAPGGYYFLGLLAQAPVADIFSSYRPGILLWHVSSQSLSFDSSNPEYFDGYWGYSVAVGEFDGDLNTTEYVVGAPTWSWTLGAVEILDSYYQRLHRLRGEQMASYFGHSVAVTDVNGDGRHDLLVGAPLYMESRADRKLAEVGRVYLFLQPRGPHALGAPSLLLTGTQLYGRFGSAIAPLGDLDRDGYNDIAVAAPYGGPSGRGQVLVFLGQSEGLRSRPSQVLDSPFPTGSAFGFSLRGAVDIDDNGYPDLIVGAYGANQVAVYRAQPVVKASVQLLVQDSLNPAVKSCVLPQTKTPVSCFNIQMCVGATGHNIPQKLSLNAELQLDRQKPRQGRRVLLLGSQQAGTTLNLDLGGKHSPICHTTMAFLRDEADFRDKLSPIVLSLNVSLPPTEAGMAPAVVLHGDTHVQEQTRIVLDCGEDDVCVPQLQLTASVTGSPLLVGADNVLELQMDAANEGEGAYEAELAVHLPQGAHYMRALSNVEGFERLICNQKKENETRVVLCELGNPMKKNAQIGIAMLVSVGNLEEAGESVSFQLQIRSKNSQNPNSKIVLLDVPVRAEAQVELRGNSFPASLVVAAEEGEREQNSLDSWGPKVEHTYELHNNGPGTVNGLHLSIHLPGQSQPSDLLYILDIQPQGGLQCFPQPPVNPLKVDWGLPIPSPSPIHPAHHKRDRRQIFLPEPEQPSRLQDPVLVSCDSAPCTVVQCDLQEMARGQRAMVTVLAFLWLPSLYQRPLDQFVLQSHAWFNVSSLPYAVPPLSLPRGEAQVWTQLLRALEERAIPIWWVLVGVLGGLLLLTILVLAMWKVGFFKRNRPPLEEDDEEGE
Sequence (P05106 27-788): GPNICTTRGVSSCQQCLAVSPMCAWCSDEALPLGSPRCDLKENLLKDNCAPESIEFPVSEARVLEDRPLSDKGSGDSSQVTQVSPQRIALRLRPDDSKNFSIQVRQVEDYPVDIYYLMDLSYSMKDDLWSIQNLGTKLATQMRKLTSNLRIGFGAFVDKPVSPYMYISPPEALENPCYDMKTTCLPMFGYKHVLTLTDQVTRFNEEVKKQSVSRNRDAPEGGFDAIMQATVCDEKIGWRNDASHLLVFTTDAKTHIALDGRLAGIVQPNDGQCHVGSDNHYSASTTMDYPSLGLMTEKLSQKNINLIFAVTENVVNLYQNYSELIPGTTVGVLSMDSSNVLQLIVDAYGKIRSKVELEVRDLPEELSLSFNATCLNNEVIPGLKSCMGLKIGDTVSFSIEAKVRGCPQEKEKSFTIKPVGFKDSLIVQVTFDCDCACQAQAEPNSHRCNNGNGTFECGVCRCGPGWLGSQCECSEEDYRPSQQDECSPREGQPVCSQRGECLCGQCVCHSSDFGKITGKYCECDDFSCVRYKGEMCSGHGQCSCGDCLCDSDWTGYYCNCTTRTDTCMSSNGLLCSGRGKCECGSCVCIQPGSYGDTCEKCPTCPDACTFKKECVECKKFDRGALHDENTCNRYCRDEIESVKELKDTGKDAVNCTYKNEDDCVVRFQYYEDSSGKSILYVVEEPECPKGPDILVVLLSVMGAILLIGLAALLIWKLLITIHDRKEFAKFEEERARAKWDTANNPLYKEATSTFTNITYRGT
Test: Platelet Aggregation Assay (fibrinogen-mediated aggregation of fixed-activated platelets)
Assay type: cell-based
Conditions: read-out: Inhibition of Fibrinogen Mediated Platelet Aggregation % inhibition at 25 μM
Value Type: inhibition at 25 µM (%)

a = CCC(C)C[C@H](NC(=O)[C@H](CC(=O)O)NC(=O)CCCCCCCCNC(=N)N)C(=O)N[C@@H](CCCNC(=N)N)C(=O)O (stereo partly shown)
b = CCCCOC(=O)C[C@H](NC(=O)CN(C)C(=O)CCCCCNC(=N)N)C(=O)N[C@H](C(=O)O)C(C)C
c = N=C(N)NCCCCCCCC(=O)NCC(=O)NCC(=O)O
## Task Arrange the 3 molecules by rising inhibition at 25 µM, starting with the smallest. // ordering of labels required in reply
## Result c, b, a
(c: 12%, b: 18%, a: 94%)

====

Target: thrombin-stimulated platelets (Homo sapiens, UniProt P05106+P08514)
Sequence (P08514 32-1039): as the sequence (P08514 32-1039) above
Sequence (P05106 27-788): as the sequence (P05106 27-788) above
Test: Fibrinogen-Binding Assay (125I-fibrinogen binding to platelets)
Conditions: 125I-fibrinogen 0.176 μmol/liter, thrombin-stimulated platelets; read-out: Inhibition of 125I-Fibrinogen Binding to Platelets IC50
Value Type: IC50 (nM)

Sample records with IC50:
Structure Notation | Measured Target | IC50 (nM)
CCCC[C@H](NC(=O)[C@H](CC(=O)O)NC(=O)CCCCCCCCNC(=N)N)C(=O)N[C@@H](CCCNC(=N)N)C(=O)O | thrombin-stimulated platelets (Homo sapiens, UniProt P05106+P08514) | 210
CCN(CC(=O)N[C@@H](CC(=O)O)C(=O)N[C@@H](CCCNC(=N)N)C(=O)O)C(=O)CCCCNC(=N)N | thrombin-stimulated platelets (Homo sapiens, UniProt P05106+P08514) | 1900
CC[C@H](C)[C@H](NC(=O)[C@H](CC(=O)O)NC(=O)CCCCCCCCNC(=N)N)C(=O)N[C@H](CCCNC(=N)N)C(=O)O | thrombin-stimulated platelets (Homo sapiens, UniProt P05106+P08514) | 15000
CN(CC(=O)N[C@@H](CC(=O)O)C(=O)N[C@@H](Cc1c[nH]c2ccccc12)C(=O)O)C(=O)CCCCCNC(=N)N | thrombin-stimulated platelets (Homo sapiens, UniProt P05106+P08514) | 190
N=C(N)NCCCCC(=O)NCC(=O)N[C@@H](CC(=O)O)C(=O)NCCc1ccccc1 | thrombin-stimulated platelets (Homo sapiens, UniProt P05106+P08514) | 20000

1 = CCN(CC(=O)N[C@@H](CC(=O)O)C(=O)N[C@@H](CCCNC(=N)N)C(=O)O)C(=O)CCCCCNC(=N)N
2 = CC[C@H](C)[C@H](NC(=O)CNC(=O)[C@H](CC(=O)O)NC(=O)CCCCCCCCNC(=N)N)C(=O)O
## Task Could you check which of 1 and 2 has a smaller value for IC50? Mark your answer with the label of the selected entry.
## Result 1

====

Target: fixed activated platelets (Homo sapiens, UniProt P05106+P08514)
Assay: Platelet Aggregation Assay (fibrinogen-mediated aggregation of fixed-activated platelets)
Assay type: cell-based
Settings: read-out: Inhibition of Fibrinogen Mediated Platelet Aggregation % inhibition at 25 μM
Value Type: inhibition at 25 µM (%)

Compound | Units Label | inhibition at 25 µM
CCN(CC(=O)N[C@@H](CC(=O)O)C(=O)N[C@H](C(=O)O)C(C)C)C(=O)CCCCCn1ccnc1C | % | 93
CC[C@H](C)[C@H](NC(=O)[C@H](CC(=O)O)NC(=O)CCCCCCCCNC(=N)N)C(=O)N[C@H](CCCNC(=N)N)C(=O)O | % | 97

A = CC(C)[C@H](NC(=O)[C@H](CC(=O)O)NC(=O)CCCCCCCCCCNC(=N)N)C(=O)O
B = CC(C)[C@H](NC(=O)[C@H](CC(=O)O)NC(=O)CCCCCCCCn1ccnc1)C(=O)O
## Task Between the entries labelled A and B , which has a larger inhibition at 25 µM value on record? Mark your answer with the label of the selected entry.
## Result B

====

Biological target: thrombin-stimulated platelets (Homo sapiens, UniProt P05106+P08514)
Test: Fibrinogen-Binding Assay (125I-fibrinogen binding to platelets)
Details: 125I-fibrinogen 0.176 μmol/liter, thrombin-stimulated platelets; read-out: Inhibition of 125I-Fibrinogen Binding to Platelets IC50
Non-standard residues stand in square brackets, D forms with d. Residues, ends and D or L forms follow the SMILES beside them. Sar = CNCC(=O)O
Value Type: IC50 (µM)

Sample records with IC50:
Compound | Numeric Value
CC(C)[C@H](NC(=O)[C@H](CC(=O)O)NC(=O)CCCCCCCNC(=N)N)C(=O)O | 2.8
N=C(N)NCCCCCCCC(=O)N[C@@H](CC(=O)O)C(=O)N[C@@H](CCCNC(=N)N)C(=O)O | 0.33
N=C(N)NCCCCCCCC(=O)N[C@@H](CC(=O)O)C(=O)N[C@@H](CCCCN)C(=O)O | 0.78

P = CC(C)[C@H](NC(=O)[C@H](CC(=O)O)NC(=O)C=CCCCCCNC(=N)N)C(=O)O
Q = CC(C)[C@H](NC(=O)[C@H](CC(=O)O)NC(=O)CN(C)C(=O)CCCCCCNC(=N)N)C(=O)O
R = CC(C)[C@H](NC(=O)[C@H](CC(=O)O)NC(=O)CN(C)C(=O)[C@@H](N)CCCNC(=N)N)C(=O)O [L-arginylsarcosyl-L-aspartyl-L-valine] (H-R[Sar]DV-OH)
## Task # rank by IC50, ascending (min first) // ordering of labels required in reply
## Result P, Q, R

====

Target: fixed activated platelets (Homo sapiens, UniProt P05106+P08514)
Test: Platelet Aggregation Assay (fibrinogen-mediated aggregation of fixed-activated platelets)
Type: cell-based
Settings: read-out: Inhibition of Fibrinogen Mediated Platelet Aggregation % inhibition at 25 μM
Residues, ends and D or L forms follow the SMILES beside them.
Value Type: inhibition at 25 µM (%)

Compound | Units Label | inhibition at 25 µM
CCC(CC)(NC(=O)[C@H](CC(=O)O)NC(=O)CCCCCCCCNC(=N)N)C(=O)N[C@@H](CCCNC(=N)N)C(=O)O | % | 20

A = CC[C@H](C)[C@H](NC(=O)CNC(=O)[C@H](CC(=O)O)NC(=O)CCCCCCCCNC(=N)N)C(=O)O
B = CC(C)CNC(=O)[C@H](CC(=O)O)NC(=O)CCCCCCCNC(=N)N
C = CC(C)CC(CCCN)(NC(=O)[C@H](CC(=O)O)NC(=O)CCCCCCCCNC(=N)N)C(=O)O (stereo partly drawn)
## Task # rank by inhibition at 25 µM, ascending (min first) // ordering of labels required in reply
## Result C, A, B
(C: 4%, A: 54%, B: 81%)

1 = CCN(CC(=O)N[C@@H](CC(=O)O)C(=O)N[C@H](C(=O)O)C(C)C)C(=O)CCCNC(=N)N
2 = CC(C)[C@H](NC(=O)[C@H](CC(=O)O)NC(=O)CCCCCCCCCn1ccnc1)C(=O)O
3 = CC(C)[C@H](NC(=O)[C@H](CC(=O)O)NC(=O)CNC(=O)[C@@H](N)CCCCN)C(=O)O [L-Lysylglycyl-L-aspartyl-L-valine] (H-KGDV-OH)
## Task Ranking field: inhibition at 25 µM; order: falling. // ordering of labels required in reply
## Result 1, 2, 3

====

Target: fixed activated platelets (Homo sapiens, UniProt P05106+P08514)
Experiment: Platelet Aggregation Assay (fibrinogen-mediated aggregation of fixed-activated platelets)
Type: cell-based
Conditions: fixed activated platelets, human fibrinogen 250 μg/ml; read-out: Inhibition of Fibrinogen Mediated Platelet Aggregation IC50
Value Type: IC50 (µM)

I = CC(C)[C@H](NC(=O)[C@H](CC(=O)O)NC(=O)C=CCCCCCNC(=N)N)C(=O)O
II = N=C(N)NCCCCCCCCC(=O)N[C@@H](CC(=O)O)C(=O)NCCC(=O)N[C@@H](CCCNC(=N)N)C(=O)O
III = CC(C)[C@H](NC(=O)[C@H](CC(=O)O)NC(=O)CNC(=O)CCCNC(=N)N)C(=O)O
IV = COC(=O)[C@](CCCNC(=N)N)(Cc1ccccc1)NC(=O)[C@H](CC(=O)O)NC(=O)CCCCCCCCNC(=N)N
## Task Arrange the 4 compounds by rising IC50, starting with the smallest. // ordering of labels required in reply
## Result I, II, IV, III
(I: 0.29 µM, II: 1.5 µM, IV: 13.3 µM, III: 21.9 µM)

1 = CC(C)CNC(=O)[C@H](CC(=O)O)NC(=O)CNC(=O)[C@@H](N)CCCNC(=N)N
2 = CC[C@H](C)[C@H](NC(=O)[C@H](CC(=O)O)NC(=O)CCCCCCCCNC(=N)N)C(=O)N[C@H](CCCNC(=N)N)C(=O)O
3 = CC[C@H](C)[C@H](NC(=O)[C@H](CC(=O)O)NC(=O)CN(CC)C(=O)CCCCCNC(=N)N)C(=O)O
## Task Ranking field: IC50; order: falling. // ordering of labels required in reply
## Result 1, 2, 3
